Data origin: patent US20240024488A1

molecular target: HiBit-BRG1 fusion protein (Homo sapiens, UniProt P51532); construct: expressed in transfected cells; experiment: HiBiT-BRG1 cell-based degradation assay (Nano-Glo HiBiT Lytic Detection, 24 h); conditions: HeLa cell line expressing HiBit-BRG1 and LgBit, read-out: BRG1 HiBit Degradation Maximum (%)
Sequence (P51532 whole entry, the tested form may be a part): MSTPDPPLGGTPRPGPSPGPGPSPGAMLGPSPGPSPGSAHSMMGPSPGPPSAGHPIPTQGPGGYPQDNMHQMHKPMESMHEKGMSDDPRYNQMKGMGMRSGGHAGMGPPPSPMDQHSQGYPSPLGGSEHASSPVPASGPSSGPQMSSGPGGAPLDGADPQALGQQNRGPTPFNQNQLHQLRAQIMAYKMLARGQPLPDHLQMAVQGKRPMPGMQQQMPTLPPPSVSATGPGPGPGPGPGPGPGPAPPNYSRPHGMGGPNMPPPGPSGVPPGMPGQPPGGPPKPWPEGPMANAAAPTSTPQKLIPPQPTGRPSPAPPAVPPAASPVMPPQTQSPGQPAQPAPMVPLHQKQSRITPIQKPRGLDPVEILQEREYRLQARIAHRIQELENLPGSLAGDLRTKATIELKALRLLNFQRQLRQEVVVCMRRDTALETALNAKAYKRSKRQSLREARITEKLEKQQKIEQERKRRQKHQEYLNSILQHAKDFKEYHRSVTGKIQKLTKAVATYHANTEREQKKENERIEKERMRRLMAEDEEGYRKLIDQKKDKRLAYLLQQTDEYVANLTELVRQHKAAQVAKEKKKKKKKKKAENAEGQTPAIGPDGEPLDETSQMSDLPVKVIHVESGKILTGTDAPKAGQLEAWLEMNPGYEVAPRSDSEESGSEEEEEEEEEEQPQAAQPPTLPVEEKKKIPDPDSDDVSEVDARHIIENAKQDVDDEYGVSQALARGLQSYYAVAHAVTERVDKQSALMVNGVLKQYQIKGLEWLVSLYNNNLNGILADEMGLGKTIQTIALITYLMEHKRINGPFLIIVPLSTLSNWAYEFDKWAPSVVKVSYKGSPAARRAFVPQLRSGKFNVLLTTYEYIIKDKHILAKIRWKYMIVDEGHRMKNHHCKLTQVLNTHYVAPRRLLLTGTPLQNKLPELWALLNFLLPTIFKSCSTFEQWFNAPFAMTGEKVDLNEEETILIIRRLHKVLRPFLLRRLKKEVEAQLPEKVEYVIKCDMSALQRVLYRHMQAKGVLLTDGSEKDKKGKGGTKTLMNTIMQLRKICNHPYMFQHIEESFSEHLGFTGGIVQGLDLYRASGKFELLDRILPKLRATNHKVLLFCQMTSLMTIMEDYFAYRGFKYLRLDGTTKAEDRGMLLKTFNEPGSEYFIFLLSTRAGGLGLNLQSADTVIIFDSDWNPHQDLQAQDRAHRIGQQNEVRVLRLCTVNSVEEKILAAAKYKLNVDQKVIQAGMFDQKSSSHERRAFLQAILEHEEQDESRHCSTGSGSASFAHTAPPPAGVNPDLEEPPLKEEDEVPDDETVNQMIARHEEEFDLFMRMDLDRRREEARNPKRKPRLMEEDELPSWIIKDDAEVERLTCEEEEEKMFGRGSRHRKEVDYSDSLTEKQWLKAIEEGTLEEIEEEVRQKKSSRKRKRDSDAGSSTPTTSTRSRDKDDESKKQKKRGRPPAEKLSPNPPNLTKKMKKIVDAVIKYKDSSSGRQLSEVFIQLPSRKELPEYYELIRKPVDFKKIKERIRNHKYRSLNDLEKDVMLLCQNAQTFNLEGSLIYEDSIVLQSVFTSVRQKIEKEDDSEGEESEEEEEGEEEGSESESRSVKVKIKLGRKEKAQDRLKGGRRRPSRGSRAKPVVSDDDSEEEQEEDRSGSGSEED
readout_kind: Dmax

These solved cases illustrate the format of a correct answer.
compound	recorded_value
Cc1ncsc1-c1ccc([C@H](C)NC(=O)[C@@H]2C[C@@H](O)CN2C(=O)[C@@H](c2cc(OCCN[C@@H]3CCc4[nH]c5nnc(-c6ccccc6O)cc5c4C3)no2)C(C)C)cc1 [Compound 181]	< 50%
Cc1ncsc1-c1ccc(CNC(=O)[C@@H]2C[C@@H](O)CN2C(=O)[C@@H](NC(=O)CCCCCCCCCCCCCC(=O)N2CC(c3cc4cc(-c5ccccc5O)nnc4[nH]3)C2)C(C)(C)C)cc1 [Compound 20]	< 50%
Cc1ncsc1-c1ccc(CNC(=O)[C@@H]2C[C@@H](O)CN2C(=O)[C@@H](NC(=O)CCC(=O)NC23CC(c4cc5cc(-c6ccccc6O)nnc5[nH]4)(C2)C3)C(C)(C)C)cc1 (racemic) [Compound 298]	< 50%
Cc1ncsc1-c1ccc([C@H](C)NC(=O)[C@@H]2C[C@@H](O)CN2C(=O)[C@@H](c2cc(N3CCC(CN4CCc5[nH]c6nnc(-c7ccccc7O)cc6c5[C@H]4C)CC3)no2)C(C)C)cc1 (racemic) [Compound 81]	> 75%
Cc1ncsc1-c1ccc([C@H](C)NC(=O)[C@@H]2C[C@@H](O)CN2C(=O)[C@@H](c2cc(OCCNCc3cc4cc(-c5ccccc5O)nnc4[nH]3)no2)C(C)C)cc1 (racemic) [Compound 212]	< 50%

Provide Dmax for all items below, preserving their order.
1. Cc1ncsc1-c1ccc([C@H](C)NC(=O)[C@@H]2C[C@@H](O)CN2C(=O)[C@@H](c2cc(N3C[C@@H]4C[C@H]3CN4C(=O)[C@@H]3CCc4[nH]c5nnc(-c6ccccc6O)cc5c4C3)no2)C(C)C)cc1 (single isomer, unassigned) [Compound 102]
2. Cc1ncsc1-c1ccc([C@H](C)NC(=O)[C@@H]2C[C@@H](O)CN2C(=O)[C@@H](c2cc(OCCCN3CC(c4[nH]c5nnc(-c6ccccc6O)cc5c4C)C3)no2)C(C)C)cc1 (racemic) [Compound 229]
3. Cc1ncsc1-c1ccc([C@H](C)NC(=O)[C@@H]2C[C@@H](O)CN2C(=O)[C@@H](c2cc(OCCNCc3ccc(Cc4cc5cc(-c6ccccc6O)nnc5[nH]4)cc3)no2)C(C)C)cc1 (racemic) [Compound 295]
4. Cc1ncsc1-c1ccc(CNC(=O)[C@@H]2C[C@@H](O)CN2C(=O)[C@@H](c2cc(OCCN3CC(c4cc5cc(-c6ccccc6O)nnc5[nH]4)C3)no2)C(C)C)cc1 (single isomer, unassigned) [Compound 209]

["< 50%", "< 50%", "> 75%", "< 50%"]
